# target-system: T1, human α-CGRP 1-37 (WT) (human, C-terminal amide; N-terminal biotin when captured on the SA chip; 125I-labelled in the radioligand assay)
# T1 construct: also called α-human
# T1 peptide: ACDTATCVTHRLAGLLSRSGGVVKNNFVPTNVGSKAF
# method-description: Biacore, 37°C, Fab over CGRP on SA chip
Listing of recorded Kd by entry.
measured-quantity: Kd (nM)

[[record]]
binder = "G1 variant M54 Fab (Fab, V domains shown, Fab; constant domains as m1) VH: EVQLVESGGGLVQPGGSLRLSCAASGFTFSNYWISWVRQAPGKGLEWVAEIRSKSDNPATHYAEAVKGRFTISRDNAKNSLYLQMNSLRAEDTAVYYCTVYFDYGLAIQNYWGQGTLVTVSS VL: EIVLTQSPATLSLSPGERATLSCKASKNVATYVSWYQQKPGQAPRLLIYAASNRYLGIPARFSGSGSGTDFTLTISSLEPEDFAVYYCSQSYNYPYTFGQGTKLEIK"
endpoint_result = 11.2

[[record]]
binder = "G1 variant M41 Fab (Fab, V domains shown, Fab; constant domains as m1) VH: EVQLVESGGGLVQPGGSLRLSCAASGFTFSNYWISWVRQAPGKGLEWVAEIRSKSDNSATHYADAVKGRFTISRDNAKNSLYLQMNSLRAEDTAVYYCTVYFDYGLAIQNYWGQGTLVTVSS VL: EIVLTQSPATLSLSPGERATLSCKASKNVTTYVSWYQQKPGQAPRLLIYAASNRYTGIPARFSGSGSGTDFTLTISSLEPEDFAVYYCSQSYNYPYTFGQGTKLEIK"
endpoint_result = 1.31

[[record]]
binder = "G1 variant M71 Fab (Fab, V domains shown, Fab; constant domains as m1; printed L561 read as L56I) VH: EVQLVESGGGLVQPGGSLRLSCAASGFTFSNYWISWVRQAPGKGLEWVAEIRSKSDYSATHYAEAVKGRFTISRDNAKNSLYLQMNSLRAEDTAVYYCTVYFDYGLAIQNYWGQGTLVTVSS VL: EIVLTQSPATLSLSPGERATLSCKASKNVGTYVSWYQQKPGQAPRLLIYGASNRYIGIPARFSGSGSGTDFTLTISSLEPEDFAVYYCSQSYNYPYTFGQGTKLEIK"
endpoint_result = 8

[[record]]
binder = "G1 variant M31 Fab (Fab, V domains shown, Fab; constant domains as m1) VH: EVQLVESGGGLVQPGGSLRLSCAASGFTFSNYWISWVRQAPGKGLEWVAEIRSKSDGSATHYAEAVKGRFTISRDNAKNSLYLQMNSLRAEDTAVYYCTVYFDYGLAIQNYWGQGTLVTVSS VL: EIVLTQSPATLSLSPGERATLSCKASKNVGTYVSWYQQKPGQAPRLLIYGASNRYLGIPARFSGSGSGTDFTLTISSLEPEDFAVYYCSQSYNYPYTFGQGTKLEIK"
endpoint_result = 2.17

[[record]]
binder = "antibody G1 Fab fragment (Fab, V domains shown) VH: EVQLVESGGGLVQPGGSLRLSCAASGFTFSNYWISWVRQAPGKGLEWVAEIRSESDASATHYAEAVKGRFTISRDNAKNSLYLQMNSLRAEDTAVYYCLAYFDYGLAIQNYWGQGTLVTVSS VL: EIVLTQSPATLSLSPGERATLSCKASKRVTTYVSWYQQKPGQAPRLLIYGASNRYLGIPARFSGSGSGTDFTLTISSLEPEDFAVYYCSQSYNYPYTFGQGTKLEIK"
endpoint_result = 0.063


These measurements were taken from patent US20190071490A1.
